Conditions: 298.15 K; 101.33 kPa; Liquid; Pycnometric method
readout-label: mass density (kg/m3)
Use kg/m3 as the unit, but write only the number.

Please review the following examples before continuing.
- compound: "CCCCCCCCn1cc[n+](C)c1.O=S(=O)([N-]S(=O)(=O)C(F)(F)F)C(F)(F)F"
  recorded-number: 1310
- compound: "CCCC[n+]1ccc(C)cc1.O=S(=O)([N-]S(=O)(=O)C(F)(F)F)C(F)(F)F"
  recorded-number: 1350
- compound: "CCCCCCCCn1cc[n+](C)c1.O=S(=O)([O-])C(F)(F)F [1-octyl-3-methylimidazolium trifluoromethanesulfonate]"
  recorded-number: 1120
- compound: "CCCCCCCCn1cc[n+](C)c1.N#C[N-]C#N [3-methyl-1-octylimidazolium dicyanamide]"
  recorded-number: 1000
- compound: "CCCC[n+]1ccc(C)cc1.O=S(=O)([O-])C(F)(F)F [1-butyl-4-methylpyridinium trifluoromethanesulfonate]"
  recorded-number: 1170

Field: next compound
May I ask what mass density has been recorded for CCCCCCCCn1cc[n+](C)c1.O=S(=O)([O-])C(F)(F)C(F)(F)C(F)(F)C(F)(F)F [1-methyl-3-octylimidazolium perfluorobutanesulfonate] ?
1330
